Data origin: PubChem BioAssay (NCATS)

target: Luciferin 4-monooxygenase (Photinus pyralis) (UniProt P08659); experiment: Firefly luciferase counterscreen qHTS: Assay Interference Panel against the NCATS CANVASS Library (AID 1347363); conditions: purified firefly luciferase, luminescence inhibition, 5 min; series mostly up to 57.5 µM; also: 0% is about no effect
Sequence (P08659 whole entry, looked up): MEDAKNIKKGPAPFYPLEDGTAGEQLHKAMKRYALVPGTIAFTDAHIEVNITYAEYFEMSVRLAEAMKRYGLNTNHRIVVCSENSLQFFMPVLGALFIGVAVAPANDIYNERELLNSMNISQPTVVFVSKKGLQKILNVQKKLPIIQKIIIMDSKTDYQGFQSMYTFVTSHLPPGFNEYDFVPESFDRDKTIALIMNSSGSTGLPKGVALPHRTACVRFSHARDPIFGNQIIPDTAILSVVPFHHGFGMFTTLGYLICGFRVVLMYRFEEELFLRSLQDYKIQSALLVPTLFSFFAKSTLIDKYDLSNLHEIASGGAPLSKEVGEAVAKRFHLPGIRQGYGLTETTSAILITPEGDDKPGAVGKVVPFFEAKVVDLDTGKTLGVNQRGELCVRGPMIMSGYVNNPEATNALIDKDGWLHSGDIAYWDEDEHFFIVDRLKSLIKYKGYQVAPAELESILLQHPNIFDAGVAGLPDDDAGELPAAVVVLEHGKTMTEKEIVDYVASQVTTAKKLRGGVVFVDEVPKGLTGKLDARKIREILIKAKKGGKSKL
The source made the active and inactive calls. Calls follow the shape of the dose curve; as a rule, active = well fitted curve in the direction sought with a large enough effect; inconclusive = small, poorly fitted or top-dose-only effect, or another doubt; inactive = no such curve, though single readings can be large or run the other way.
Response enum: active, inactive

Solved entries (count: 5):
- compound: "COc1cc(C2C3=C(Cc4cc5c(cc42)OCO5)C(=O)OC3)cc(OC)c1OC (stereo unspecified)"
  classification: "inactive"
- compound: "C=C(C)C(=O)O[C@H]1C[C@@]2(C)OC(=CC2=O)/C(C)=C\\[C@H]2OC(=O)C(=C)[C@H]12"
  classification: "inactive"
- compound: "COc1cc([C@@H]2c3cc4c(cc3C[C@@]3(O[C@@H]5O[C@H](CO)[C@@H](O)[C@H](O)[C@H]5O)COC(=O)[C@H]23)OCO4)cc(OC)c1OC"
  classification: "inactive"
- compound: "CC(=O)O[C@H]1c2ccccc2-c2c3c(cc4c2[C@@H]1N(C(C)=O)CC4)OCO3"
  classification: "inactive"
- compound: "O=c1cc(-c2ccc(O)c(O)c2)oc2cc(O[C@@H]3O[C@H](CO)[C@@H](O)[C@H](O)[C@H]3O)cc(O)c12"
  classification: "inactive"

Task: Can you look up the reported call for C=C[C@@]1(C)CC[C@@H]([C@H](C)C(C)=O)O1 for me?
Result: inactive

Task: Can you look up the reported call for C/C1=C/[C@@H](C)[C@H](O)C/C=C/CC/C=C/C(=O)O[C@@H]1[C@H](C)C(=O)CCCC1CC(=O)NC(=O)C1 for me?
Result: inactive

Task: Can you look up the reported call for O=C1OC(CCO)c2cccc(O)c21 (stereo unspecified) for me?
Result: inactive

Task: Can you look up the reported call for O=Cc1ccc2n1C[C@]1(C[C@H](O)[C@@H](CO)O1)OC2 for me?
Result: inactive

Task: Can you look up the reported call for [C-]#[N+][C@@]12C(=O)[C@@H]3[C@@H](O[C@@]4(C(=O)N(C)c5cccc1c54)C3(C)C)C(=O)[C@@]2(C)C=C for me?
Result: inactive

Task: Can you look up the reported call for C/C(=C\[C@H](C)C(=O)C[C@H](O)CC1CC(=O)NC(=O)C1)[C@@H]1OC(=O)CCCC/C=C/[C@@H](O)C[C@@H]1C for me?
Result: inactive

---

As shown below, each of these compounds has a reported activity change, negative = inhibition value.
assay: qHTS Assay for Lipid Storage Modulators (AID 1519); conditions: Drosophila S3 cells, BODIPY lipid droplet/cell ratio, laser cytometry; at 57.5 µM (top of the series); cells loaded with oleic acid; also: % is scaled to controls: 0 for no effect and ±100 for the full control effect
Results filed as inconclusive are left out.
# value in %; strip the unit string

Example compounds with recorded activity change, negative = inhibition:
- compound: "CN(C)Cc1ccccc1-c1nccc(N(C)C)n1"
  obs_value: 2.35
- compound: "CN=C(N)NCCCC(N)C(=O)O (centres undefined)"
  obs_value: 0.52
- compound: "COCCNc1nc(-c2ccccc2Cl)nc2ccccc12"
  obs_value: 3.23

Switching to the query record.
Sure, the documented activity change, negative = inhibition for O=c1c(CCc2ccccc2)nc2cncnc2n1Cc1ccc(F)cc1 is 5.86

---

As shown below, each of these compounds has a reported activity change, negative = inhibition value.
Assay: NFAT Signaling Pathway (AID 444);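 also: carbachol stimulus at about its EC50 of 1 µM final; % is scaled to controls: 0 for no effect and ±100 for the full control effect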
Settings: Jurkat NFAT-bla M1, carbachol, beta-lactamase ratio, 5 h; at 7.69 µM (top of the series) unless noted
Protocol: NCGC Assay Overview: The nuclear factor of activated T cells (NFAT) family of transcription factors has been found primarily in most immune system cells and some other non-immune cells. NFAT plays the immunomodulatory role, primarily in T-cell activation and differentiation. […] NCGC Assay Protocol Summary: The cells were prepared in RPMI 1640 medium containing 0.1% dialyzed FBS and 25 mM HEPES at 1.6 x 10^6cell/ml. […] The %Activity was determined from the ratio of 460nm/530nm. […]
Results filed as inconclusive are left out.
# value in %; strip the unit string

Example compounds with recorded activity change, negative = inhibition:
- line_notation: "CC(C)NC(=O)N1CC[C@@]2(CCCN(S(C)(=O)=O)C2)C1"
  activity change, negative = inhibition (%): 0.961
- line_notation: "Cc1nc2cnc(N3CCOCC3)nc2n(C[C@H]2CCCO2)c1=O"
  activity change, negative = inhibition (%): -4.93
- line_notation: "Cn1c(=O)c(-c2cccc(C#N)c2)nc2cnc(Oc3ccccc3)nc21"
  activity change, negative = inhibition (%): -0.708

Sure, the documented activity change, negative = inhibition for FC(F)(F)c1ccccc1-c1nc(NCCN2CCOCC2)c2ccccc2n1 is 6.4
